SYSTEM NAME: the molecule itself
PROCEDURE SUMMARY: native gel or EMSA; purified recombinant proteins, non-reducing, non-denaturing electrophoresis (SDS- and DTT-free loading buffer), immunoblot with anti-laforin or anti-HIS antibody; self-association, monomer and dimer bands
PROPERTY NAME: binding result

>  <PROTEIN>
laforin C109S/110S, recombinant, no epitope tag (enzyme, human, UniProt O95278 1-331, looked up, laforin, human, 331 amino acids (EPM2A), double mutant C109S/110S; source: E. coli BL21 (RIL), pET21b+, purified (amylose resin)) MRFRFGVVVPPAVAGARPELLVVGSRPELGRWEPRGAVRLRPAGTAAGDGALALQEPGLWLGEVELAAEEAAQDGAEPGRVDTFWYKFLKREPGGELSWEGNGPHHDRSSTYNENNLVDGVYCLPIGHWIEATGHTNEMKHTTDFYFNIAGHQAMHYSRILPNIWLGSCPRQVEHVTIKLKHELGITAVMNFQTEWDIVQNSSGCNRYPEPMTPDTMIKLYREEGLAYIWMPTPDMSTEGRVQMLPQAVCLLHALLEKGHIVYVHCNAGVGRSTAAVCGWLQYVMGWNLRKVQYFLMAKRPAVYIDEEALARAQEDFFQKFGKVRSSVCSL

>  <PROPERTY NAME>
binding result

>  <REPORTED>
binds

$$$$

Data provenance is paper PMC3724922.
